Entries annotated with measured half-life
- Run Description: Half life in Sprague-Dawley rat at 0.9 mg/kg
- Assay type: ADME, organism-based
- Parameters: dose 0.9 mg/kg
- Conditions Used: in vivo
Measure Name: half-life (min)

* CC1=C(C(=O)Nc2ccc3[nH]ncc3c2)C(c2ccc(Cl)c(Cl)c2)CC(=O)N1 (stereo not drawn) [GSK-299115A] | 48
* CC1=C(C(=O)Nc2cc(Cl)c3[nH]ncc3c2)C(c2ccc(C(F)(F)F)cc2)CC(=O)N1 (stereo not drawn) [GSK-466317A] | 72
* CC1=C(C(=O)Nc2ccc3[nH]ncc3c2)C(c2ccc(C(F)(F)F)cc2)CC(=O)N1 (stereo not drawn) | 42

====

- Run Description: Plasma concentration in spontaneously hypertensive rat at 3 mg/kg after 2 hrs
- Type: ADME, organism-based
- Parameters: dose 3 mg/kg
Measure Name: concentration at 2 h (ng/mL)

• CC1=C(C(=O)Nc2cc3cn[nH]c3cc2F)C(c2ccc(C(F)(F)F)cc2)CC(=O)N1 (stereo unspecified) = 190

====

- Run Description: Clearance in Sprague-Dawley rat at 1.8 mg/kg
- Format: ADME, organism-based
- Design: dose 1.8 mg/kg
- Conditions Used: in vivo
Measure Name: clearance (mL/min/kg)

- CC1=C(C(=O)Nc2cc3cn[nH]c3cc2F)C(c2ccc(C(F)(F)F)cc2)CC(=O)N1 (stereo unspecified): 25

====

- Run Description: Volume of distribution in Sprague-Dawley rat at 1.8 mg/kg
- Type: ADME, organism-based
- Set-up: dose 1.8 mg/kg
- Conditions Used: in vivo, read-out: Vdss
Measure Name: Vd (L/kg)

- CC1=C(C(=O)Nc2cc3cn[nH]c3cc2F)C(c2ccc(C(F)(F)F)cc2)CC(=O)N1 (stereo unspecified): 1.4

====

- Run Description: Clearance in Sprague-Dawley rat at 1.3 mg/kg
- Type: ADME, organism-based
- Design: dose 1.3 mg/kg
- Conditions Used: in vivo
Measure Name: clearance (mL/min/kg)

- CC1=C(C(=O)Nc2ccc3[nH]nc(C)c3c2)C(c2ccc(C(F)(F)F)cc2)CC(=O)N1 (stereo unspecified) [GSK-466314A]: 24

====

- Run Description: Cmax in Sprague-Dawley rat at 1.6 mg/kg, iv
- Type: ADME, organism-based
- Set-up: dose 1.6 mg/kg, route intravenous
- Conditions Used: in vivo
Measure Name: Cmax (ng/mL)

* CC1=C(C(=O)Nc2ccc3[nH]ncc3c2)C(c2ccc(F)cc2)CC(=O)N1 (stereo unspecified) | 668
